- Experiment Notes: protease stability score; higher = more stable; yeast display proteolysis, trypsin and chymotrypsin;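 further: log10 excess protease needed over predicted unfolded state with 0 meaning unfolded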
Measured protease stability score, listed per entry.

{"columns": ["Entry Sequence", "protease stability score"],
 "data": [
  ["DETHDAHRKAEEIITALRTGDPKQAESLVPENVKIDVGDKTIHGKEQYSKEFKKFTDRVDKVEVRIKHVHVQGDKIKIRMEARENVDGQDKRYQFVLIFDRHNGKDQAVSIKVD", 1.02],
  ["DEDDRKRVAKEFMDNLNTGNEDEALKLADKDARLRYGDKTLHGREQIKDWLHTLRERIDSIEVHRIEVQGDKVRVRASVVINGKEEMVDINFRMSNGRLEKVTFDPRLDEMLKG", 1.44],
  ["DEETKAREFIKKVQNVMRTNNPEDFVKQFDPNARMVVGDKSYHGRDDVRKWAQDLFRRADHVSMSVKRLSVHNGRFHMQADLEVHVNGHREEVKVVMNAKDENGQILIKHARFE", 1.77],
  ["DKHRVEHAKRILEIWTNGDEKSVKDLFDPNVRVDVGDKRITGREQLAREWKRRRDEMEWSLTVHEYKDDPNRVDINVHFNRNKNGRPRTQQQHLRIDMDNGSVRQLRIEDSK", 0.216],
  ["DEDQARLAIRFMEAWLEGNEDELKNQADPNAHFQVGDKHVTGMDEAAKELKTQLTEIRWDYKSVRIDTEEGRANLDMTVRMEVNGKPVEHSQKIEVERHNGQLSVIDQQFDNDTWDEVKS", -0.393],
  ["DQEDQQRLAEQFMRALDEGDSDTIAKLLDPNARVIVGDKTVHGHRHARRVIHEFRNRVDRVDVRTVEVDNGHVRIEAVLNFNGQRTRFVYHLKIDNGRFKEMQLRSK", 0.892],
  ["EKHVMTRITQYERNVQNGDEDTLNEMVDKDAKINIGDKTWHGMHNAAKDWKRQKDEMRLDYRSIHVTVQGDTVRIDQVVAVERNGKPSHDRNVQIWHEDNGKVKQVEQHKRP", -0.216],
  ["DEEDLDRVESALRTNDPDTLSEMADKDVKVEYGDKSYQGRERFQHFIKQLAHQVDHVEVRSVDKRGDRLKATRVLVINGRSITVVVTIEARNGRIKMLEMSARNESQEKKLVELFQ", 0.941],
  ["DERDLKEALDLVKTGDFTRIARMADENVKLKVGDKDVHGREDAKRLMSQLEKQVDHYEIDDVTLEGNSASIDAHFNVNGNRIRFVVVIHVHNGKIKHFTIHVRDEEDKDKLRKDDG", 0.799],
  ["DREDTAREAAHEAIKIWKTGDPEKLKELFDPNVKVKIGDRTVHGREELVRQIRHEREQVDHLSFDLEDYKMDGDQMHVVVRFTANRNGRRTEDKQVYNASFHNGQFRIHEMNKK", -0.356],
  ["DKEASDHATRIAQTNNPQKAVDKADPDVKATYGNKVYNGKNQARDVAKQFDEHFDRVEVKSVDNDGETVRADVRARFNGKTMEFTFVIVMSNGHVKMLFIDVRNPEDQEDLDRLLT", -0.188],
  ["DNDKLAKDAVDTMDEVLQDGDEKKLNDLFDPNARLRVGDHEIHGREQIHDWIKTRLNQIDHIEMRIVHVRREGEKALARVTFVNQHNGKQDEREAVYRFTVENGRATFEEVNIK", -0.116],
  ["DEHIDHMYKEILRLLETGNSEEAQKLLDPNVKVVVGDKRYHGREDYARDMVRRIKEMDVQRDFDHVSVHNGKVDADAKQTTNSNGRPSSNTVRITIVQHNGRIHMIKIDSRQ", 0.041],
  ["DEHKVKEAAERFVRMLEHNDPDTLSKLFDPNVTMQVGDKEYQGRETLMRLVKELKKRVDHIEVKQVHASNGRVNVRMTIQFNGKRFEFTMHIVLHDGRVDTLSLDVRNEEEKRRVDS", 1.31],
  ["DEKIKQNIEEFLKAVQHGDEERMTQLVDPNAKIVVGNQRVHGMEEYARDIVRKVKEIRIKIDRMHISVQGNKAVITMVYVININGKPVTFRAVYIYEVHDGRVKRVKNNIPEEDQKKVDS", 0.733],
  ["DEEHNQRLAERVAKVVQSGDEEEFEKQADPNVKVVYGDKTYHGNSEAMNAIKQIRKQADTVSVQSVDVHGDTARIQMRFDVNGKDRIVKVTVQVDNGRVVEVRFHET", 1.12],
  ["DETKAAQVAAELISAIVHGDTDRALELADKDVRADIGENKVHGREEMHKMVEQYDKSVDHASVKTYKVSGNSVKVNVEVTHNGRKRTVDFTAEAHNGKAKQVTAEVK", -0.768],
  ["DEELEDRWRKMLEARKTGDEDRIKENMDPNAELNVGDKTYHGHDKLAKTLVDEMRTIRVEYKKFSMDARGDTVEAKYRVIENHNGKPQEDTHRWSATNRGDKIQHVDVRSDK", -0.435],
  ["DPKKDLKVAEEVLKAMYSGDDEKAQKLVDPSVKAQTGDQKYHGTDDIKKMVKTFKDYGVEHEEKETKVDGGYAEVVIQAKIGNDEVEAKWRVYAKDGRVDYVQADITEKLTKLMQHG", -0.445],
  ["DEERRKNLAREYNKALTSGDENKVRRLADENVRIEIGDHVVSGRENLSKLVRDDQERVDRFRVQDVHVEGDKIQFDIQVEINGKTINITIEMQLHNGRIKKIKFDPRAVEQLKG", 0.612],
  ["DEDQNTVFEEVKKAIRTGDEEMLKTLMDPNVRLEYGDTEIHGREEAVRQISTRHNQLHVDEQIKDIKAHNGKVDVDFEVHRSHNGDPQHRRASARADVSNGSVKELVVKYDK", 0.014],
  ["DEEKQEQVLRDQNTNDPDQMERLLDENVKVDVGDEEIHGRETVVKFLRHFIDRIDHVDVRELSVRNGRFHIEVVYTFDGRRMRYILHMEVKDGHVKYQQIQATSDEDKKRLDEMES", 2.38]
]}
